Test system: Mus musculus
test.protocol: Decrease in noradrenaline tissue levels in mice heart at 100 mg/kg, po after 18 hrs
Format: functional, organism-based
Design: dose 100 mg/kg
experimental.conditions: NMR1
The source made the active and inactive calls. The rule behind the calls is not given here.
endpoint.label: Activity

NCCc1cnc(S)n1[C@H]1CCc2c(F)cc(F)cc2C1 | Active
NCc1cnc(S)n1[C@H]1COc2c(F)cc(F)cc2C1 | Active
Cl.NCCc1cnc(S)n1[C@H]1COc2c(F)cc(F)cc2C1 | Active
Cl.NCc1c[nH]c(=S)n1[C@H]1CCc2c(F)cc(F)cc2C1 [NEPICASTAT HYDROCHLORIDE] | Active

====

Reported Activity values follow for various molecules
target.entity: Dopamine beta-hydroxylase (Homo sapiens)
Sequence (whole entry): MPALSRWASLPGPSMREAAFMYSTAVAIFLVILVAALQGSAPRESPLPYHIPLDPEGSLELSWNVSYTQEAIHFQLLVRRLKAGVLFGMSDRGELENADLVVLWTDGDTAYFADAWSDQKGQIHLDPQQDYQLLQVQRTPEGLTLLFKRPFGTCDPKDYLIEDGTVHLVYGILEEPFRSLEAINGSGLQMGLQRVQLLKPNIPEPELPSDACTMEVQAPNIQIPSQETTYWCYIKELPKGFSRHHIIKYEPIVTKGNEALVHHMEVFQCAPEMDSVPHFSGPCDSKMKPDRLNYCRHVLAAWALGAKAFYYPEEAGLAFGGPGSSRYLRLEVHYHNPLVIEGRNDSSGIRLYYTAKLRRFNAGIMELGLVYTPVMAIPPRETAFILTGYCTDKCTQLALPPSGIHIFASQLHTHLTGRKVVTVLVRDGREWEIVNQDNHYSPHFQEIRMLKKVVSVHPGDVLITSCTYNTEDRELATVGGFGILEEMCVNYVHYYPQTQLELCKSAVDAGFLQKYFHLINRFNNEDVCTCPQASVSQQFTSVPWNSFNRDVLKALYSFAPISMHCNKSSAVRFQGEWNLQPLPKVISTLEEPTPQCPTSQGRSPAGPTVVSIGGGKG
test.protocol: Effect on DBH activity in presence of dopamine by measuring Noradrenaline level
Type: functional
Parameters: concentration or dose not given beside the values
Give just the numeric value; % need not be written.

Completed entries (count: 2):
NCCc1cnc(S)n1[C@H]1COc2ccc([N+](=O)[O-])cc2C1 | 94.8
NCCc1cnc(S)n1C1CSc2ccc(O)cc2C1 (stereo not given) | 27.3

## Task Returns the measured Activity for the input molecule. Input: "COc1cc(Cl)cc2c1OC[C@H](n1c(CCN)cnc1S)C2"
## Result 36.7

## Task Activity for "NCCc1cnc(S)n1[C@@H]1COc2c(F)cc(F)cc2C1" ?
## Result 50.2

## Task Quick one: Activity of COc1ccc2c(c1)CC(n1c(CCN)cnc1S)CS2 (stereo not given) ?
## Result 99.4

## Task Given the molecule "NCCc1cnc(S)n1[C@H]1COc2c(O)cccc2C1" , what is its reported Activity?
## Result 125

====

target.entity: Dopamine beta-hydroxylase (Homo sapiens) (UniProt P09172)
test.protocol: Effect on DBH activity in presence of dopamine by measuring Noradrenaline level
Type: functional
Parameters: concentration or dose not given beside the values
# Activity per entry
// unit must come after the numeric part

Some solved entries appear below for comparison.
COc1ccc2c(c1)C[C@@H](n1c(CCNCc3ccccc3)cnc1S)CO2 | 66%
NCCc1cnc(S)n1[C@H]1COc2ccc(F)cc2C1 | 8%
CNCCc1cnc(S)n1[C@H]1COc2ccccc2C1 | 2.2%
Oc1ccc2c(c1)C[C@@H](n1c(CCNCc3ccccc3)cnc1S)CO2 | 4.5%
NCc1cnc(S)n1[C@H]1COc2ccc(O)cc2C1 | 17.8%

## Task Please state recorded Activity (tested on Dopamine beta-hydroxylase (Homo sapiens) (UniProt P09172)) of "NCCc1cnc(S)n1[C@H]1COc2ccccc2C1"
## Result 3%

## Task Return Activity measured with Dopamine beta-hydroxylase (Homo sapiens) (UniProt P09172) given this compound: Cl.NCc1c[nH]c(=S)n1[C@H]1CCc2c(F)cc(F)cc2C1 [NEPICASTAT HYDROCHLORIDE]
## Result 0%

## Task Lab request: please report Activity under test system Dopamine beta-hydroxylase (Homo sapiens) (UniProt P09172) for "CNCCc1cnc(S)n1[C@H]1COc2ccc(O)cc2C1"
## Result 15.5%
